tgt: 5HT1A receptors (Rattus norvegicus, UniProt P19327)
Sequence (P19327 whole entry): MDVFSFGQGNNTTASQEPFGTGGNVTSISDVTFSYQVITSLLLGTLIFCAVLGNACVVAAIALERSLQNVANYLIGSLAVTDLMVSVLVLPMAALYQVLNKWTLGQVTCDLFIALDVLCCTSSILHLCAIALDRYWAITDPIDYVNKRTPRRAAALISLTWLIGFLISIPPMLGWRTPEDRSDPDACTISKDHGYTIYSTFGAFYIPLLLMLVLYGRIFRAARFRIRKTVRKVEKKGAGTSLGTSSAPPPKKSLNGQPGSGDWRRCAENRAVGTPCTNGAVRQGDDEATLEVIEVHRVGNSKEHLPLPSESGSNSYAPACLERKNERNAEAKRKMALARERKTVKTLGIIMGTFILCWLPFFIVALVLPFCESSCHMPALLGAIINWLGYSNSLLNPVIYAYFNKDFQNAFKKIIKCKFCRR
experiment.description: Body temperature / hypothermia, agonist (alone) and antagonist (vs 8-OH-DPAT)
Type: in vivo, rat (male Wistar)
Set-up: from tissue; host or cells: whole living male Wistar rats (endogenous receptor)
settings: agonist test; compound alone s.c.; minimum effective dose vs control
Recorded HYPOTHERMIA MED alone values for a group of molecules are listed next.

Tell me HYPOTHERMIA MED alone of c1ccc(CCCN2CCN(c3cccc4c3OCCO4)CC2)cc1 when tested on 5HT1A receptors (Rattus norvegicus, UniProt P19327). > 2.5 mg/kg

Specify HYPOTHERMIA MED alone for c1cc2c(c(N3CCN(CC4Cc5ccsc5C4)CC3)c1)OCCO2 (racemic) , system 5HT1A receptors (Rattus norvegicus, UniProt P19327). > 2.5 mg/kg

# return HYPOTHERMIA MED alone of c1cc2c(c(N3CCN(CCc4cccc5ccccc45)CC3)c1)OCCO2 (system: 5HT1A receptors (Rattus norvegicus, UniProt P19327)) > 10.0 mg/kg

Provide 5HT1A receptors (Rattus norvegicus, UniProt P19327) HYPOTHERMIA MED alone reading for c1cc2c(c(N3CCN(CCc4ccsc4)CC3)c1)OCCO2 . > 2.5 mg/kg

# ---- query molecule ----
Quote 5HT1A receptors (Rattus norvegicus, UniProt P19327) HYPOTHERMIA MED alone for entry c1cc2c(c(N3CCN(CCCc4ccsc4)CC3)c1)OCCO2 . 10.0 mg/kg
